As shown below, each of these compounds has a reported pKi value.
- TARGET OR SYSTEM: Human immunodeficiency virus type 1 protease (Human immunodeficiency virus 1, UniProt Q72874)
Just so you know, pKi here is -log10 of the concentration in molar units; reply with that number alone.

{"columns": ["MOLECULE", "pKi"],
 "data": [
  ["Cc1ccc(C[C@@H]2[C@H](O)[C@@H](O)[C@@H](Cc3ccc(C)cc3)N(Cc3ccc4[nH]nc(N)c4c3)C(=O)N2Cc2ccc3[nH]nc(N)c3c2)cc1", 10.21],
  ["CC(C)c1ccc(C[C@@H]2[C@H](O)[C@@H](O)[C@@H](Cc3ccc(C(C)C)cc3)N(Cc3ccc4[nH]nc(N)c4c3)C(=O)N2Cc2ccc3[nH]nc(N)c3c2)cc1", 9.72],
  ["Cc1cc(C)cc(C[C@@H]2[C@H](O)[C@@H](O)[C@@H](Cc3cc(C)cc(C)c3)N(Cc3ccc4[nH]nc(N)c4c3)C(=O)N2Cc2ccc3[nH]nc(N)c3c2)c1", 10.17]
]}

Given the compound CC(C)(C)c1cccc(C[C@@H]2[C@H](O)[C@@H](O)[C@@H](Cc3cccc(C(C)(C)C)c3)N(Cc3ccc4[nH]nc(N)c4c3)C(=O)N2Cc2ccc3[nH]nc(N)c3c2)c1 , what is its reported pKi?
9.68

Note, next up: CCCc1ccc(C[C@@H]2[C@H](O)[C@@H](O)[C@@H](Cc3ccc(CCC)cc3)N(Cc3ccc4[nH]nc(N)c4c3)C(=O)N2Cc2ccc3[nH]nc(N)c3c2)cc1
10.17

Just for reference, ChEMBL document CHEMBL1132498 is where these values come from.
